Attribute: HPLC-purity
details: 27% to 33% relative humidity, dark, air, 2 d; measured 29.8% (Form A 28%), 23° C.
measured-metric: HPLC-purity (%)

molecule="Nc1nc(O)c2c(CCc3ccc(C(=O)N[C@@H](CCC(=O)O)C(=O)O)cc3)c[nH]c2n1 [Form A]" measured_metric=HPLC-purity reported_measurement=99.60
molecule="Nc1nc(O)c2c(CCc3ccc(C(=O)N[C@@H](CCC(=O)O)C(=O)O)cc3)c[nH]c2n1 [Heptahydrate]" measured_metric=HPLC-purity reported_measurement=99.74
molecule="Nc1nc(O)c2c(CCc3ccc(C(=O)N[C@@H](CCC(=O)O)C(=O)O)cc3)c[nH]c2n1 [Form IV]" measured_metric=HPLC-purity reported_measurement=99.81
molecule="Nc1nc(O)c2c(CCc3ccc(C(=O)N[C@@H](CCC(=O)O)C(=O)O)cc3)c[nH]c2n1 [2.5 hydrate]" measured_metric=HPLC-purity reported_measurement=99.82

----------
settings: 27% to 33% relative humidity, dark, air, 9 d; measured 31% (Form A 30%), 24° C.
measured-metric: HPLC-purity (%)

compound="Nc1nc(O)c2c(CCc3ccc(C(=O)N[C@@H](CCC(=O)O)C(=O)O)cc3)c[nH]c2n1 [Heptahydrate]" reported_measurement=99.84
compound="Nc1nc(O)c2c(CCc3ccc(C(=O)N[C@@H](CCC(=O)O)C(=O)O)cc3)c[nH]c2n1 [2.5 hydrate]" reported_measurement=99.84
compound="Nc1nc(O)c2c(CCc3ccc(C(=O)N[C@@H](CCC(=O)O)C(=O)O)cc3)c[nH]c2n1 [Form A]" reported_measurement=99.57
compound="Nc1nc(O)c2c(CCc3ccc(C(=O)N[C@@H](CCC(=O)O)C(=O)O)cc3)c[nH]c2n1 [Form IV]" reported_measurement=99.82

----------
settings: 60% to 70% relative humidity, dark, air, 2 d; measured 61%, 22° C. (Form A 54%, 23° C)
Below, each of the compounds is paired with its reported HPLC-purity value.
measured-metric: HPLC-purity (%)

compound="Nc1nc(O)c2c(CCc3ccc(C(=O)N[C@@H](CCC(=O)O)C(=O)O)cc3)c[nH]c2n1 [Form A]" measured_metric=HPLC-purity reported_measurement=99.71
compound="Nc1nc(O)c2c(CCc3ccc(C(=O)N[C@@H](CCC(=O)O)C(=O)O)cc3)c[nH]c2n1 [Form IV]" measured_metric=HPLC-purity reported_measurement=99.83
compound="Nc1nc(O)c2c(CCc3ccc(C(=O)N[C@@H](CCC(=O)O)C(=O)O)cc3)c[nH]c2n1 [Heptahydrate]" measured_metric=HPLC-purity reported_measurement=99.63
compound="Nc1nc(O)c2c(CCc3ccc(C(=O)N[C@@H](CCC(=O)O)C(=O)O)cc3)c[nH]c2n1 [2.5 hydrate]" measured_metric=HPLC-purity reported_measurement=99.73

----------
conditions: 70° C., 5 mbar, 9 d
This section presents compounds with their documented HPLC-purity (10.5 min) values.
measured-metric: HPLC-purity (10.5 min) (%)

compound="Nc1nc(O)c2c(CCc3ccc(C(=O)N[C@@H](CCC(=O)O)C(=O)O)cc3)c[nH]c2n1 [Form IV]" measured_metric="HPLC-purity (10.5 min)" unit_annotation=% reported_measurement=99.80
compound="Nc1nc(O)c2c(CCc3ccc(C(=O)N[C@@H](CCC(=O)O)C(=O)O)cc3)c[nH]c2n1 [2.5 hydrate]" measured_metric="HPLC-purity (10.5 min)" unit_annotation=% reported_measurement=99.80
compound="Nc1nc(O)c2c(CCc3ccc(C(=O)N[C@@H](CCC(=O)O)C(=O)O)cc3)c[nH]c2n1 [Heptahydrate]" measured_metric="HPLC-purity (10.5 min)" unit_annotation=% reported_measurement=99.80
compound="Nc1nc(O)c2c(CCc3ccc(C(=O)N[C@@H](CCC(=O)O)C(=O)O)cc3)c[nH]c2n1 [Form A]" measured_metric="HPLC-purity (10.5 min)" unit_annotation=% reported_measurement=99.41

FYI, the data here is from patent US9174991B2.
